Reference source for all entries: the supplement of paper PMC8967900

- Tested on: RCH-ACV
- Test details: selective drug sensitivity score (sDSS, relative to normal bone marrow) (sDSS (score)); higher = more potent and effective on the cell line relative to normal bone marrow cells;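 note: ALL cell lines in 384-well plates, five doses spanning 10,000-fold, each plate scaled between vehicle and 100 µmol/L benzalkonium chloride controls, sDSS an adapted area-under-curve metric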
- Assay context: 72 h
Reported property: selective drug sensitivity score

1. CN(C)CCOc1ccc(/C(=C(/CCCl)c2ccccc2)c2ccccc2)cc1 [Toremifene] (top concentration 10000 nM)
6.88
2. CC[C@H](Nc1ncnc2[nH]cnc12)c1nc2cccc(F)c2c(=O)n1-c1ccccc1 [Idelalisib] (top concentration 10000 nM)
23.8
3. CC(C)C[C@H](NC(=O)CNC(=O)c1cc(Cl)ccc1Cl)B(O)O [Ixazomib] (top concentration 1000 nM)
7.36
4. CCNC(=O)CCC/C=C\C[C@@H]1[C@@H](/C=C/[C@@H](O)CCc2ccccc2)[C@H](O)C[C@@H]1O [Bimatoprost] (top concentration 5500 nM)
0
5. Nc1ncn([C@@H]2O[C@H](CO)[C@@H](O)[C@H]2O)c(=O)n1 [Azacitidine] (top concentration 10000 nM)
5.24
6. Cc1cc2c(C(=O)NC[C@H](C)c3ccccc3)c(O)c(O)cc2c(O)c1-c1c(C)cc2c(C(=O)NC[C@H](C)c3ccccc3)c(O)c(O)cc2c1O [Sabutoclax] (top concentration 25000 nM)
16.8
7. CCN(CC)Cc1ccc2cc(COC(=O)Nc3ccc(C(=O)NO)cc3)ccc2c1 [Givinostat] (top concentration 1000 nM)
9.8
8. CCn1c(C(=O)N(C2CC2)C2CC2)cc2c3c(ncn3C)c(Nc3cc(C)n(C)n3)nc21 (top concentration 10000 nM)
-3.06
9. N[C@@H]1CCCN(c2c(/C=C3\SC(=O)NC3=O)cccc2-c2ccccc2)C1 [AZD1208] (top concentration 10000 nM)
0.6
10. Nc1nc(F)nc2c1ncn2[C@@H]1O[C@H](CO)[C@@H](O)[C@@H]1O [Fludarabine] (top concentration 10000 nM)
5.9
11. O=C1c2c(O)ccc(O)c2C(=O)c2c(NCCNCCO)ccc(NCCNCCO)c21 [Mitoxantrone] (top concentration 1000 nM)
16.2

###

- Test system: DND-41
- Test details: selective drug sensitivity score (sDSS, relative to normal bone marrow) (sDSS (score)); higher = more potent and effective on the cell line relative to normal bone marrow cells
- Assay context: 72 h
Binary classification by selective drug sensitivity score, with 0 as an inclusive lower bound for criterion met; all other cases are criterion not met.

1) CC(C)(C)C[C@@H]1N[C@@H](C(=O)N[C@H]2CC[C@H](O)CC2)[C@H](c2cccc(Cl)c2F)[C@]12C(=O)Nc1cc(Cl)ccc12 (top concentration 10000 nM)
criterion not met
2) O=c1[nH]c(C2CCCN2)nc2c1oc1ccc(Cl)cc12 (configuration not stated) (top concentration 10000 nM)
criterion not met
3) O=C(O)C(=O)O.[NH-][C@@H]1CCCC[C@H]1[NH-].[Pt+2] [Oxaliplatin] (top concentration 100000 nM)
criterion met
4) Cc1nc(Nc2ncc(C(=O)Nc3c(C)cccc3Cl)s2)cc(N2CCN(CCO)CC2)n1 [Dasatinib] (top concentration 1000 nM)
criterion met
5) COc1cc(N2CCC(N3CCN(C)CC3)CC2)ccc1Nc1ncc(Cl)c(Nc2ccccc2P(C)(C)=O)n1 [Brigatinib] (top concentration 1000 nM)
criterion met
6) NC(=S)N/N=C/c1ncccc1N [Triapine] (top concentration 10000 nM)
criterion met
7) COc1cc2ncnc(Nc3ccc(F)c(Cl)c3)c2cc1NC(=O)/C=C/CN1CCCCC1 [Dacomitinib] (top concentration 1000 nM)
criterion not met
8) CN(C)C[C@@H]1CCn2cc(c3ccccc32)C2=C(C(=O)NC2=O)c2cn(c3ccccc23)CCO1 [Ruboxistaurin] (top concentration 10000 nM)
criterion not met

###

- Tested on: ALL-SIL
- Test details: selective drug sensitivity score (sDSS, relative to normal bone marrow) (sDSS (score)); higher = more potent and effective on the cell line relative to normal bone marrow cells
- Assay context: 72 h
Reported property: selective drug sensitivity score

1) CCOCc1nc2c(N)nc3ccccc3c2n1CC(C)(C)O [Resiquimod] (top concentration 10000 nM)
-4.92
2) COC(=O)c1ccc([C@H]2c3[nH]c4ccccc4c3C[C@H](C(=O)OC)N2C(=O)CCl)cc1 [RSL3] (top concentration 10000 nM)
0
3) O=C(Nc1cccc(Nc2ncc(Br)c(NCCc3cnc[nH]3)n2)c1)N1CCCC1 [BX-912] (top concentration 10000 nM)
9.36
4) O=c1[nH]cc(F)c(=O)[nH]1 [Fluorouracil] (top concentration 10000 nM)
-0.64
5) C/C(=C\c1csc(C)n1)[C@@H]1C[C@@H]2O[C@]2(C)CCC[C@H](C)[C@H](O)[C@@H](C)C(=O)C(C)(C)[C@@H](O)CC(=O)N1 [Ixabepilone] (top concentration 1000 nM)
2.98
6) CS(=O)(=O)c1ccc(C(=O)Nc2ccc(Cl)c(-c3ccccn3)c2)c(Cl)c1 [Vismodegib] (top concentration 10000 nM)
0.36

###

Reported selective drug sensitivity score values for the following molecules.
- System: KARPAS-45
- Test details: selective drug sensitivity score (sDSS, relative to normal bone marrow) (sDSS (score)); higher = more potent and effective on the cell line relative to normal bone marrow cells
- Assay context: 72 h
Reported property: selective drug sensitivity score

1. O[C@H]1CC[C@H](Nc2ncc3nc(Nc4c(F)cc(F)cc4F)n([C@H]4CCOC4)c3n2)CC1 [Tanzisertib] (top concentration 10000 nM)
0
2. CN1CCC(COc2cnc(-c3cccc(Cn4nc(-c5cccc(C#N)c5)ccc4=O)c3)nc2)CC1 [Tepotinib] (top concentration 1000 nM)
-0.08
3. CCn1c(C(=O)N(C2CC2)C2CC2)cc2c3c(ncn3C)c(Nc3cc(C)n(C)n3)nc21 (top concentration 10000 nM)
-3.06
4. CCNC(=O)CCC/C=C\C[C@@H]1[C@@H](/C=C/[C@@H](O)CCc2ccccc2)[C@H](O)C[C@@H]1O [Bimatoprost] (top concentration 5500 nM)
0
5. CN(CC(=O)N(Cc1ccc(C2CCCCC2)cc1)c1ccc(C(=O)O)cc1)S(=O)(=O)c1c(F)c(F)c(F)c(F)c1F [SH-4-54] (top concentration 25000 nM)
-4.24
6. C[C@]12CC[C@@H]3c4ccc(O)cc4C[C@@H](CCCCCCCCC[S+]([O-])CCCC(F)(F)C(F)(F)F)[C@H]3[C@@H]1CC[C@@H]2O (stereo partly specified) [Fulvestrant] (top concentration 1000 nM)
0

###

Reported selective drug sensitivity score values for the following compounds.
- System: P30-OHKUBO
- Test details: selective drug sensitivity score (sDSS, relative to normal bone marrow) (sDSS (score)); higher = more potent and effective on the cell line relative to normal bone marrow cells
- Assay context: 72 h
Reported property: selective drug sensitivity score

1) N#CC(c1ccnc(OCc2ccc(CN3CCOCC3)cc2)n1)c1nc2ccccc2s1 (centres undefined) [Bentamapimod] (top concentration 10000 nM)
5.34
2) N#Cc1ccnc(N2C(=O)CC[C@H]2C(=O)N(c2cncc(F)c2)[C@H](C(=O)NC2CC(F)(F)C2)c2ccccc2Cl)c1 [Ivosidenib] (top concentration 10000 nM)
1.1
3) C[C@@H]1C[C@H]2[C@@H]3CCC4=CC(=O)C=C[C@]4(C)[C@@]3(F)[C@@H](O)C[C@]2(C)[C@@]1(O)C(=O)CO [Dexamethasone] (top concentration 10000 nM)
28.6
4) CCn1c(-c2nonc2N)nc2cnc(Oc3cccc(NC(=O)c4ccc(OCCN5CCOCC5)cc4)c3)cc21 (top concentration 10000 nM)
10.9
5) O=c1[nH]c(C2CCCN2)nc2c1oc1ccc(Cl)cc12 (centres undefined) (top concentration 10000 nM)
1.2
6) Cc1cc(Nc2ncc(Cl)c(Nc3ccccc3S(=O)(=O)C(C)C)n2)c(OC(C)C)cc1C1CCNCC1 [Ceritinib] (top concentration 2500 nM)
-2.44
7) COc1cc2c(Oc3ccc4[nH]c(C)cc4c3F)ncnc2cc1OCCCN1CCCC1 [Cediranib] (top concentration 1000 nM)
2.7
8) CO[C@H]1C[C@@H]2CC[C@@H](C)[C@@](O)(O2)C(=O)C(=O)N2CCCC[C@H]2C(=O)O[C@H]([C@H](C)C[C@@H]2CC[C@@H](OP(C)(C)=O)[C@H](OC)C2)CC(=O)[C@H](C)/C=C(\C)[C@@H](O)[C@@H](OC)C(=O)[C@H](C)C[C@H](C)/C=C/C=C/C=C/1C [Ridaforolimus] (top concentration 100 nM)
4.36
9) Nc1nc(N)c2nc(-c3cccc(O)c3)c(-c3cccc(O)c3)nc2n1 [TG100-115] (top concentration 10000 nM)
3.6
10) N#Cc1ccc(COC[C@H]2O[C@@H](n3c(NCc4ccc(Cl)c(Cl)c4)nc4c(N)ncnc43)[C@H](O)[C@@H]2O)cc1 (top concentration 10000 nM)
1.62
11) Nc1nc(Cl)nc2c1ncn2[C@@H]1O[C@H](CO)[C@@H](O)[C@@H]1F [Clofarabine] (top concentration 10000 nM)
10.3
12) NCC(=O)Nc1ccc(-n2nc(C(F)(F)F)cc2-c2ccc3c(ccc4ccccc43)c2)cc1 (top concentration 25000 nM)
7.6
13) Nc1ncn([C@H]2C[C@H](O)[C@@H](CO)O2)c(=O)n1 [Decitabine] (top concentration 10000 nM)
4.64
14) C[C@]1(c2nc3c(C(N)=O)cccc3[nH]2)CCCN1 [Veliparib] (top concentration 10000 nM)
4.42
